system: K-562 leukemia; assay: NCI tumour cell line growth inhibition, 48 h
Known GI50 of a selection of compounds

Here's what some known entries look like.
OCc1ccc(N(Cc2ccc(F)cc2)CC2CCC2)cc1Cl : 6.4 µM
N=C1C(c2nc3ccccc3s2)=C(O)CN1c1cc(Cl)cc(Cl)c1 : > 100 µM
COC(=O)[C@]12CC[C@@H](C)[C@H](C)[C@@H]1C1=CC[C@@H]3[C@@]4(C)CC(=O)[C@H](O)[C@@](C)(CO)[C@@H]4C(=O)C[C@@]3(C)[C@]1(C)CC2 : 11.2 µM

Kindly consider the entry below.
GI50 of COc1ccc(-c2nc3sccn3c2-c2ccnc(NCCCNS(=O)(=O)c3ccc(F)cc3)n2)cc1 , assay on K-562 leukemia, is 1.43 µM

* * *

Known TGI of a selection of compounds
test system: ACHN renal; experiment: NCI tumour cell line growth inhibition, 48 h

Here's what some known entries look like.
CC(C)COC(c1ccc2c(c1)OCO2)C(C)Br (stereo not given) : > 100 µM
COC(=O)N/N=C(/c1nc2ccc([N+](=O)[O-])cc2[nH]c1=O)C(O)c1ccc(OC)c(OC)c1 (stereo not given) : > 100 µM
N#Cc1c(N)c(C#N)c2c(c1-c1ccc(Cl)cc1)COc1ccc(F)cc1-2 : > 50 µM
O=C1/C(=C/c2ccccc2[N+](=O)[O-])COc2ccc(O)c(O)c21 : 0.863 µM

Kindly consider the entry below.
TGI of Cn1cc(C2=C(c3c(S(C)=O)n(C)c4ccccc34)C(=O)NC2=O)c2ccccc21 (stereo not given) , assay on ACHN renal, is > 25 µM

* * *

Known TGI of a selection of compounds
test system: PC-3 prostate; assay: NCI tumour cell line growth inhibition, 48 h

Fc1ccc(-c2c(-c3ccncc3)[nH]c3nccnc23)cc1 : > 25 µM
O=C(c1ccco1)c1c(C(F)(F)F)n([O-])c2ccc(F)cc2[n+]1=O : 2.47 µM

TGI of Nc1ccc(C(=O)Nc2ccccc2N)cc1 , assay on PC-3 prostate, is > 100 µM

TGI of CSc1ccc(/C=C2\N=C(c3ccccc3)N(/N=C3\C(=O)Nc4ccccc43)C2=O)cc1 , assay on PC-3 prostate, is > 100 µM

TGI of O=C(CSc1ncc(-c2ccccc2)n1-c1ccccc1)Nc1ccc(-c2nc3ccccc3s2)cc1 , assay on PC-3 prostate, is > 100 µM

TGI of CCOC(=O)C(NC(=O)c1ccccc1)(Nc1ccc(S(=O)(=O)Nc2cc(C)nc(C)n2)cc1)C(F)(F)F (stereo unspecified) , assay on PC-3 prostate, is > 100 µM

TGI of COc1ccc2c(c1)N(CCO)C1=C(C(=O)OC1)C2c1ccc(OC)c(OC)c1 (stereo unspecified) , assay on PC-3 prostate, is > 100 µM

TGI of N[C@@H](CSSC[C@H](N)C(=O)N1CCn2cc(-c3ccccc3)nc2[C@@H]1CC1CCCCC1)C(=O)N1CCn2cc(-c3ccccc3)nc2[C@@H]1CC1CCCCC1 , assay on PC-3 prostate, is 9.62 µM

TGI of COc1ccc2c(c1)C(=O)c1c-2c(N2CCN(C(=O)CCNCCNCCO)CC2)nc2ccccc12 , assay on PC-3 prostate, is 27.9 µM

TGI of CC(C)[C@H](C(=O)O[C@@H]1/C=C/C(=O)O[C@@H](C)CCC/C=C/[C@@H]2C[C@H](O)C[C@H]21)N(C)C , assay on PC-3 prostate, is > 57.8 µM

TGI of CCCCCCSc1nc(COC(=O)NC)c(COC(=O)NC)n1C , assay on PC-3 prostate, is > 100 µM

Where these numbers come from: PubChem BioAssay (NCI)
